assayed-system: β-N-acetylglucosaminidase (from jack bean)
assay-explanation: Inhibition assay against commercial β-N-acetylglucosaminidase (jack bean), p-nitrophenyl N-acetyl-β-D-glucosaminide substrate
Assay type: biochemical
applied-conditions: pH 5.5, 37° C.; average of three determinations ± s.e.m.; NI = no inhibition detected at 200 μM; read-out: Jack beans Hex
Counter-ions that a name gives are not always drawn.
Recorded Ki values for a group of molecules are listed next.

molecule | Ki
CCCNC(=S)N[C@H]1CN2/C(=N/Cc3ccccc3)SC[C@@H]2[C@@H](O)[C@@H]1O [Compound 19] | > 200 µM
CCC(=O)N[C@H]1CN2/C(=N/Cc3ccc4[nH]ccc4c3)SC[C@@H]2[C@@H](O)[C@@H]1O [Compound 15, hydrochloride] | > 200 µM
CC(C)C(=O)N[C@H]1CN2/C(=N/Cc3ccccc3)SC[C@@H]2[C@@H](O)[C@@H]1O [Compound 16, Hydrochloride] | > 200 µM
CCNC(=S)N[C@H]1CN2/C(=N/Cc3ccccc3)SC[C@@H]2[C@@H](O)[C@@H]1O [Compound 18] | > 200 µM
CCC(=O)N[C@H]1CN2/C(=N/Cc3ccccc3)SC[C@@H]2[C@@H](O)[C@@H]1O [Compound 13, Hydrochloride] | > 200 µM

Provide Ki value for the following molecule: CCC(=O)N[C@H]1CN2/C(=N/Cc3cccc4ccccc34)SC[C@@H]2[C@@H](O)[C@@H]1O [Compound 14, hydrochloride]
> 200 µM

Give Ki for CCCC(=O)N[C@H]1CN2/C(=N/Cc3ccccc3)SC[C@@H]2[C@@H](O)[C@@H]1O [Compound 17]
> 200 µM
